# Tested on: IFNα-Induced STAT Phosphorylation in Human Whole Blood
# assay.info: IFNα-Induced STAT Phosphorylation in Human Whole Blood
# Format: cell-based
# assay.setup: 1 h incubation with compound, 1000 U/mL recombinant human IFNα A/D for 15 min, pSTAT5 (pY694) median fluorescence intensity in CD3 positive population, read-out: hWB IC50
pIC50: −log10 of the molar value.
Each entry below lists one item and its recorded pIC50 value.
measured.attribute: pIC50

1. [2H]C([2H])([2H])NC(=O)c1nnc(NC(=O)C2CC2)cc1Nc1cccc(-c2ncc(C(C)(O)CF)cn2)c1OC (stereo not drawn) [Example 26] ... 7.80
2. [2H]C([2H])([2H])NC(=O)c1nnc(Nc2cc(=O)n(C)cn2)cc1Nc1cccc(-c2ncc(F)cn2)c1OC [Example 106] ... 6.82
3. [2H]C([2H])([2H])NC(=O)c1nnc(Nc2cc(C(C)(C)O)ccn2)cc1Nc1cccc(-c2ncc(F)cn2)c1OC [Example 102] ... 6.67
